assay: chemical genetic growth profiling, strain panel (AID 1159580);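 also: tested at 20 µM; growth read once vehicle control cultures reached saturation at 30 °C; 1 = growth at the plate median or of vehicle wells; lower values mean less growth of the strain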; conditions: S. cerevisiae deletion strains, growth OD, locus YLL001W, strain dnm1, hits give low values
In all, about 5,500 compounds went through this assay and about 2,000 (36%) were called active. Another 18% or so got no clear call; they are omitted. This is one part of the list.

- compound: "C1N2CN3CN1CN(C2)C3"
  normalized growth: 0.93
- compound: "COc1ccc2c(c1)OCC(Cc1ccc(OC)c(OC)c1)C2=O (configuration not stated)"
  normalized growth: 0.897
- compound: "CC12CCCCC1(Br)[N+](=O)N2[O-] (configuration not stated)"
  normalized growth: 0.967
- compound: "COc1ccc(CCC(=O)c2c(O)cc(O[C@@H]3O[C@H](CO)C(O)[C@H](O)C3O[C@@H]3O[C@@H](C)[C@H](O)[C@@H](O)[C@H]3O)cc2O)cc1O (some centres not stated)"
  normalized growth: 1
- compound: "O=C(O)CCC1NCC2CC1CN1CCCCC21 (configuration not stated)"
  normalized growth: 0.954
- compound: "COc1ccc2c(c1)OCC(Cc1ccc(O)c(OC)c1)C2=O (configuration not stated)"
  normalized growth: 0.954
- compound: "Oc1c(Cl)cc(Cl)c(Cl)c1Cc1c(O)c(Cl)cc(Cl)c1Cl"
  normalized growth: 0.0618
- compound: "Cc1cc(CC(=O)O)n(C)c1C(=O)c1ccc(Cl)cc1"
  normalized growth: 1
- compound: "O=c1oc2ccccc2cc1O"
  normalized growth: 0.985
- compound: "COc1ccc2c(c1)OCC(Cc1ccc(OC)c(OC(C)=O)c1)C2=O (configuration not stated)"
  normalized growth: 0.979
- compound: "COC(=O)[C@@H]1OC(=O)C2OC23[C@@]1(C)CCC1[C@@]2(C)CCC(=O)C(C)(C)C2C[C@@H](OC(C)=O)[C@]13C (some centres not stated)"
  normalized growth: 1.01
- compound: "COc1cc(C)c2c(=O)cc(-c3ccccc3)oc2c1"
  normalized growth: 0.932
